B1: TPR t1 (parent)
chain: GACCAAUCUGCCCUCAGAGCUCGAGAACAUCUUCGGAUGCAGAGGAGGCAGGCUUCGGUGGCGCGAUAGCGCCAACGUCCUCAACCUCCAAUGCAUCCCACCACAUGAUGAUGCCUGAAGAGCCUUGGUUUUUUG

Variants of: B1
Assay method text: polymerase ribozyme fitness, log enrichment relative to wild type (log ratio); higher = more active; in vitro selection for triplet polymerase activity
// map polymerase ribozyme fitness (log ratio) onto a label; ranges class 1: < -3; class 2: ≥ -3 and < -0.7; class 3: ≥ -0.7

Worked set:
Residue codes	Assigned label
GACCAAUCUGCCCUCAGAGCUCGAGAACCUCUUCGGAUGCCGAGGAGGCAGGCUUCGGUGUCGCGAUAGCGCCAACGUCCUCAACCUCCAAUGCAUCCCACCACAUGAUGAUGCCUGAAGAGCCUUGGUUUUUUG [A29C A41C G61U]	class 1
GACCAAUCUGCCCUCAGAGCUCGAGAACAUCUUCGGAUGCUGAGGAGGCAGGCUUCGGUGGCGCGAUAGCGCCAACGUCCUCAACCUCCAAUGCAGCCCACCACAUGAUGAUGCCUGAAGAGCCUUGGUUUUUUG [A41U U96G]	class 2
GACCAAUCUGCCCUCAGAGCUCGAGAACAUCUUCGGAUGCAGAGGAGGCAGGCUUCGGUGGCGCGAUAGCGUCACCGUCCUCAACCUCCAAUGCAUCCCACCACAUGAUGAUGCCUGUAUAGCCUUGGUUUUUUG [C72U A75C A118U G120U]	class 2
GACCAAUCUGCCCUCAAAGCUCGAGAACAUCUUCGGAUGAAGUGGAGGCAGGCUUCGGUGGCGCGAUAGCGCCAACGUCCUCAACCUCCAAUGCAUCCCACCACAUGAUGAUGCCUGAAGAGCCUUGGUUUUUUG [G17A C40A A43U]	class 1
GACCAAUCUGCCCUCAGAGCUCGAGAACAUCUUCGGAUGCAGCGGAGGCAGGCUUCGGUGCCGCGAUAGCGCCAACGUCCUCAACCUCCAAUGCAUCCCACCACAUGAUGAUGCCUGAAGAGCCUUGGUUUUUUG [A43C G61C]	class 1
GACCAUUCUGCCCUCAGAGCUCGAGAACAUCUUCGGAUGCAGAGGAGGCAGGCUUCGGUUGCGCGAUAGCGCCAACGUCCUCAACCUCCAAUGCAUCCCACCACAUGAUGAUGCAUUAAGAGCCUUGGUUUUUUG [A6U G60U C115A G117U]	class 1
GACCAAUCUGCCCUCAGAGCUCGAGAACAUCUUCGGAUGCAGAGGAGGCAGGCUUCGGUGGCGCGAUAGCGCCAACGUCCUCAACCUCCACUGCAUCCCACCACAUGAUGAUGCCUGAAGAGUCUUGGUUUUUUG [A91C C123U]	class 3
GACCAAUCUGCCCUCAGAGCUCGAGAACAUCUUCGGAUGCAGAGGAGGCAGGCUUCGGUGGCGCGAUAGCGCCAACGUCCUCAACCUCCAAUGCAUCCCACCACACGAUGAUGCCUGAAGAGGCUUGGUUUUUUG [U106C C123G]	class 3
GACCAAUCUGCCCUCAGAGCUCGAGAACAUCUUCGAAUGCAGAGGAGGCAGGCUUCGGUGGCGCGAUAGCGCCAACGUCCUCAACCUCCAAUGCAUCCCACCACAUGAUUAUGCCUGAAGUGCCUUGGUUUUUUG [G36A G110U A121U]	class 2
GACCAAUCUGCCCUCAGAGCUCGAGAACAUCUUCGGAUGCAGAGGAGGCAGGCUUCGGUGGCGCGAUAGCGCCAACGUCCUCAACCUCGAAUGCAUCCCACCACAUGAUGAUGCCUGAACAGCCUUGGUUUUUUG [C89G G120C]	class 3

// query Sort into band: GACCAAUCUGCCCUCAGAGCUCGAGAACAUCUUCGUAUGCAGAGGAGGCAGGCUUCGGUGGCGCGAUAGCGCCAACGUCCUCAACCUCCAAUGCAUCCCACCACAUGAUGAUGCCUGAAGAGCUUUGGUUUUUUG [G36U C124U]
// result class 3

// query Sort into band: GACCAAUCUGCCCUCAGAGCUCGAGAACAUCUUCGGAUGCAGAGGAGGCAGGCUUCGGUGGCUCGAUAGCGCCAACGUCCUCAACCUCCAAUGCAUCCCACCACAUGAUGAUGCCUGAACAGCCUUGCUUUUUUG [G63U G120C G128C]
// result class 1

// query Sort into band: GACCAAUCUGCCCUCAGAGCUCGAGAACAUCUUCGGAUGCAGAGGAGGCAGGCUUCGGUGUCGCGAUAGCGCCAACGUCCAUAACCUCCAAUGCAUCCCACCACAUGAUGAUGCCUGAGGAUCCAUGGCUUUUUG [G61U U81A C82U A119G G122U U125A U129C]
// result class 2

// query Sort into band: GACCAAUCUGCCGUCAGAGCUCGAGAACAUCUUCGGAUGCAGAGGAGGCAGUCUUCGGUGGCGCGAUAGUGCCAACGUCCUCAACCUCCAAUGCAUCCCACCACAUGAUGAUGCCUGAAGAGACUUGGUUUUUUG [C13G G52U C70U C123A]
// result class 2

// query Sort into band: GACCAAUCUGCCCACAGAGCUCGAGAACAUCUUCGGAUGCAGAGGAGGCAGGCUUCGGUGGCGCGAUAGCGCCCAAGUCCUCAACCUCCAAUGCAUCCCACCACAUGAUGAUGCCUGAAGCGCCUUGGUUUUUUG [U14A A74C C76A A121C]
// result class 2
